Molecular target: CDK2 (Homo sapiens)
Construct: endogenous in cells; host or cells: MKN1 cells
Assay: CDK2 degradation in MKN1 cells (AlphaLISA)
Format: cell-based
Conditions: 14 h incubation, read-out: CDK2 degradation 14 h: Mean external-Abs DC50
The reader will find reported DC50 values listed item by item below.
metric: DC50

{"compound": "Cc1cc(S(=O)(=O)NC2CC(N3CCN(CC4CCN(c5ccc(N6CCC(=O)NC6=O)c(Cl)c5)CC4)CC3)C2)ccc1Nc1ncc(C(F)(F)F)c(N2CCCC(C)(O)C2)n1 (stereo not drawn)", "target desc": "CDK2 (Homo sapiens)", "metric": "DC50", "recorded result": "< 100 nM"}
{"compound": "CC1(O)CCCN(c2nc(Nc3ccc(S(=O)(=O)NC4CCC(CN5CCN(c6ccc(C7CCC(=O)NC7=O)cc6)CC5)CC4)cc3Cl)ncc2C(F)(F)F)C1 (stereo not drawn)", "target desc": "CDK2 (Homo sapiens)", "metric": "DC50", "recorded result": "< 100 nM"}
{"compound": "C[C@]1(O)CCC[C@H]1n1c(=O)c(C(F)F)cc2cnc(NC3CCN(C(=O)COCCOCCOCCOCCNc4cccc5c4C(=O)N(C4CCC(=O)NC4=O)C5=O)CC3)nc21 (stereo partly drawn)", "target desc": "CDK2 (Homo sapiens)", "metric": "DC50", "recorded result": "> 1000 nM"}
